Source: ChEMBL document CHEMBL4130629

tested on: Rattus norvegicus; assay: Oral bioavailability in Sprague-Dawley rat assessed as BMS-626529 formation at 5 mg/kg; assay type: ADME, organism-based; settings: in vivo
Parameter Measured: bioavailability

Q: Field request: bioavailability | item: COc1cnc(-n2cnc(C)n2)c2[nH]cc(C(=O)C(=O)N3CCN(C(=O)c4ccccc4)CC3)c12
Result: 80 to 122%

---

# AUC at 24 h per record follows
experiment: AUC in Sprague-Dawley rat at 5 mg/kg, po after 24 hrs; type: ADME, organism-based; set-up: time < 24 hr, dose 5 mg/kg, route oral; conditions: in vivo
Numbers only here, please. The scale is µM·h.

Below are worked cases with known answers.
1) COc1cnc(-c2cnccn2)c2[nH]cc(C(=O)C(=O)N3CCN(C(=O)c4ccccn4)CC3)c12: 14.6
2) COc1cnc(-n2ccc(CO)n2)c2[nH]cc(C(=O)C(=O)N3CCN(C(=O)c4ccccc4)[C@H](C)C3)c12: 1.99
3) COc1cnc(-n2ccc(C)n2)c2[nH]cc(C(=O)C(=O)N3CCN(C(=O)c4ccccc4)CC3)c12: 15.7
4) COc1cnc(-n2cnc(N3CCOCC3)n2)c2[nH]cc(C(=O)C(=O)N3CCN(C(=O)c4ccccc4)CC3)c12: 13
5) CCc1ncn(-c2ncc(OC)c3c(C(=O)C(=O)N4CCN(C(=O)c5ccccc5)CC4)c[nH]c23)n1: 254
6) COc1cnc(-n2cnc(C)n2)c2[nH]cc(C(=O)C(=O)N3CCN(C(=O)c4ccccc4)CC3)c12: 111

Q: Field request: AUC at 24 h | item: CCc1ncn(-c2ncc(OC)c3c(C(=O)C(=O)N4CCN(C(=O)c5ccccc5)[C@H](C)C4)c[nH]c23)n1
Result: 82

Q: COc1cnc(-n2cncn2)c2[nH]cc(C(=O)C(=O)N3CCN(C(=O)c4ccccc4)CC3)c12 ?
Result: 48.7

Q: COc1cnc(-n2ccnn2)c2[nH]cc(C(=O)C(=O)N3CCN(C(=O)c4ccccc4)[C@H](C)C3)c12 ?
Result: 8.6

Q: COc1cnc(-n2ccc(N)n2)c2[nH]cc(C(=O)C(=O)N3CCN(C(=O)c4ccccc4)CC3)c12 ?
Result: 0.03

---

assay: AUC in Sprague-Dawley rat at 5 mg/kg, po after 24 hrs; format: ADME, organism-based; parameters: time < 24 hr, dose 5 mg/kg, route oral; settings: in vivo
# log10 AUC at 24 h per record follows
Parameter value (number): base-10 log of AUC at 24 h in µM·h.

1) COc1cnc(-n2cccn2)c2[nH]cc(C(=O)C(=O)N3CCN(C(=O)c4ccccc4)CC3)c12: 1.41
2) COc1cnc(-c2cnccn2)c2[nH]cc(C(=O)C(=O)N3CCN(C(=O)c4ccccn4)[C@H](C)C3)c12: 0.89
3) COc1cnc(-n2ccc(C)n2)c2[nH]cc(C(=O)C(=O)N3CCN(C(=O)c4ccccc4)[C@H](C)C3)c12: 1.12
4) COc1cnc(-n2cc(C)nn2)c2[nH]cc(C(=O)C(=O)N3CCN(C(=O)c4ccccc4)[C@H](C)C3)c12: 1.54
5) COc1cnc(-n2ccnn2)c2[nH]cc(C(=O)C(=O)N3CCN(C(=O)c4ccccc4)CC3)c12: 1.64
6) COc1ncc(OC)c2c(C(=O)C(=O)N3CCN(C(=O)c4ccccc4)CC3)c[nH]c12: 1.18
7) COc1cnc(-n2cnc(C)n2)c2[nH]cc(C(=O)C(=O)N3CCN(C(=O)c4ccccc4)[C@H](C)C3)c12: 1.94

Now look at this one.
Q: Field request: log10 AUC at 24 h | item: COc1cnc(-c2cncc(=O)[nH]2)c2[nH]cc(C(=O)C(=O)N3CCN(C(=O)c4ccccc4)CC3)c12
Result: -0.89
